- Tested on: MS2 coat protein
- experimentDescription: apparent KD of MS2 coat protein; designed switch direction (-1 OFF switch, 1 ON switch): -1; higher = weaker reporter binding
- assaySetup: input ligand: microRNA oligo, concentration not stated
reportedMetric: apparent KD of MS2 coat protein (nM)
Provide the reading as a plain figure in nM.

- querySequence: "UUUUUGUAUGAAGGAUAUACUUAACAUGAGGAUCACCCAUGUGGUGUUGUGAGUGAGUGAGUUUAGUAGAAGGUCAAGUAUUUU [JMF's solution 46] (Eterna round: R96, puzzle: Exclusion NG 2)"
  studyTarget: "MS2 coat protein"
  recordedValue: 606
- querySequence: "AUUAUAUAGACAGGAUAUUGAUUAUUAUUUUAACAUGAGGAUCACCCAUGUAACCUUAUGUGUAGCAAGAAGGGUCAUUUAUUA [Title] (Eterna round: R96, puzzle: Exclusion NG 2)"
  studyTarget: "MS2 coat protein"
  recordedValue: 81.8
- querySequence: "UGAUCAGACCGAGGAUAUACAGGGAGGACGCACGUGAGUGCGUCCACUACAUGAGGAUCACCCAUGUAGAAGGCGGUCUGAUCU [JL ENG2 1.99] (Eterna round: R96, puzzle: Exclusion NG 2)"
  studyTarget: "MS2 coat protein"
  recordedValue: 16.9
- querySequence: "UCACGGGAUUGAGGAUAUAUAUUUAUUAUUUUAAUAGAAGGCAAAGAGUUAGUUUUUUCACUAUACAUGAGGAUCACCCAUGUU [JR_ExcNG1_Sub086] (Eterna round: R96, puzzle: Exclusion NG 1)"
  studyTarget: "MS2 coat protein"
  recordedValue: 23.2

Moving on to another sequence below.
Query UGAGUGCUGCGAGGAUAUACAUGAGGAUCACCCAUGUGGUCCUGUGAGGCUUUGCCUCACAGGAUGUAGAAGGCGCAGUACUCU [JL ENG2 1.18] (Eterna round: R96, puzzle: Exclusion NG 2) yields apparent KD of MS2 coat protein of 13.8
